Reported Fbg is given for each of the following compounds.
- Organism: Rattus norvegicus
- ASSAY_PROTOCOL: Open TG-GATES - Regimen: Single
- Format: toxicity, organism-based, Sprague-Dawley
- Set-up: regimen Single, gender Male, age 6 weeks
- PARTICULARS: in vivo, po, 300 mg/kg, 9 h, tissue Blood, route gavage, dose level Middle
Just the number in mg/dL, nothing appended.

Past entries and their recorded results:
• CCc1cc(C(N)=S)ccn1 [ETHIONAMIDE] = 208.6
• O=C(O)c1cn(C2CC2)c2cc(N3CCNCC3)c(F)cc2c1=O = 220.4
• Clc1ccccc1CN1CCc2sccc2C1 = 226.8
• O=C(O)c1cc(/N=N/c2ccc(S(=O)(=O)Nc3ccccn3)cc2)ccc1O = 233.2

# input Could you tell me which Fbg is on file for C[C@H](CS)C(=O)N1CCC[C@H]1C(=O)O ?
# output 204
